experiment: Microsome Stability (% remaining @1 hour); assay type: in vitro ADME; details: Beagle Dog; 2 μM

compound: CNS(=O)(=O)Nc1cccc(Cc2c(CN(C)C)c3ccc(OC(=O)N(C)C)cc3oc2=O)c1F
Microsome stability, % Remaining @1 hour: 76.5%
//
compound: Cn1cnc2c(F)c(Nc3ccc(Br)cc3Cl)c(C(=O)NOCCO)cc21 [Reference 1, Selumetinib]
Microsome stability, % Remaining @1 hour: 97.5%
//
compound: CNS(=O)(=O)Nc1cccc(Cc2c(C)c3ccc(OC(=O)N(C)C)cc3oc2=O)c1F [Reference 7]
Microsome stability, % Remaining @1 hour: 57.0%
//
compound: CNS(=O)(=O)Nc1nccc(Cc2c(C)c3ccc(Oc4ncccn4)cc3oc2=O)c1F [Reference 2]
Microsome stability, % Remaining @1 hour: 111.6%
